assay: Half-life in rats; type: ADME; conditions: rat, in vivo
Field: half-life. Provide a value for each of the molecules that follow.
Numeric answer only, unit h assumed.

Task item: Field request: half-life | item: C[C@@]1(O)[C@H](O)[C@@H](CO)O[C@H]1n1cc(F)c2c(N)ncnc21
Reply: 5.1

Task item: Field request: half-life | item: C[C@@]1(O)[C@H](O)[C@@H](CO)O[C@H]1n1cnc2c(N)ncnc21
Reply: 0.3

###

test: Oral bioavailability in rat; format: ADME, organism-based; settings: in vivo
observable: bioavailability (%)
Numeric answer only, unit % assumed.

Task item: Field request: bioavailability | item: C[C@@]1(O)[C@H](O)[C@@H](CO)O[C@H]1n1cnc2c(=O)[nH]c(N)nc21
Reply: 85

Task item: Field request: bioavailability | item: C[C@@]1(O)[C@H](O)[C@@H](CO)O[C@H]1n1cnc2c(N)ncnc21
Reply: 0

Task item: Field request: bioavailability | item: C[C@@]1(O)[C@H](O)[C@@H](CO)O[C@H]1n1cc(F)c2c(N)ncnc21
Reply: 51

meta.source: ChEMBL document CHEMBL1137984
